assayed-system: IL-12 (human, p35/p40 heterodimer) (Homo sapiens, UniProt P29459;P29460 SEQ:57-253,SEQ:23-328)
Sequence (P29459 23-219, chain 1 of 2): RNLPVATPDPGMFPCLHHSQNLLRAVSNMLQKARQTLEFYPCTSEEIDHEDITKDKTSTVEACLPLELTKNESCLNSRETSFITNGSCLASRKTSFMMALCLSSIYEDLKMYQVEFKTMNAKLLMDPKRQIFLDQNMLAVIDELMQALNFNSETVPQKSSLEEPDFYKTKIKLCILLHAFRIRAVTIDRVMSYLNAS
Sequence (P29460 23-328, chain 2 of 2): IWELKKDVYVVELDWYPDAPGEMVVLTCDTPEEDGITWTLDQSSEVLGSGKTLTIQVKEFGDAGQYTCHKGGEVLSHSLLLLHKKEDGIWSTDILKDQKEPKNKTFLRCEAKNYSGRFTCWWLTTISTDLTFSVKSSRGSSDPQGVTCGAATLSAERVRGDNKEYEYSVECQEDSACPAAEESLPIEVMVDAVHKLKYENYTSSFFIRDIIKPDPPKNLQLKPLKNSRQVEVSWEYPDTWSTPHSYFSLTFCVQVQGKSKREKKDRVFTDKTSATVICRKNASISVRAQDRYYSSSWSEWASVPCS
method-summary: filter; PBS, tRNA, ssDNA, BSA
endpoint-label: pKd
Answers are plain numbers, as −log10 of the molar value.

Hey, quick one: what's pKd for each of these?
1. ARC645 (mixed, deoxy A,G; 2'-OMe C,U) RNA: GGGAGAGGAGAGAACGUUCUACAGGUAGGCAAGAUAUUGGGGGAAGCGGGUGGGGUCGAUCGAUCGAUCAUCGAUG
2. ARC644 (mixed, deoxy A,G; 2'-OMe C,U) RNA: GGGAGAGGAGAGAACGUUCUACUAGUGAGGCGGUAACGGGGGGUGAGGGUGGGGUCGAUCGAUCGAUCAUCGAUG
3. ARC628 (mixed, deoxy A,G; 2'-OMe C,U) RNA: GGGAGAGGAGAGAACGUUCUACAGGCAAGGCAAUUGGGGAGCGUGGGUGGGGGGGUCGAUCGAUCGAUCAUCGAUG

Reply:
[6.86, 6.71, 6.83]

For each listed entry, give its pKd.
1. ARC620 (mixed, deoxy A,G; 2'-OMe C,U) RNA: GGGAGAGGAGAGAACGUUCUACAGGAAAGGCGCUUGCGGGGGGUGAGGGAGGGGUCGAUCGAUCGAUCAUCGAUG
2. ARC635 (mixed, deoxy A,G; 2'-OMe C,U) RNA: GGGAGAGGAGAGAACGUUCUACAGGCUCAAAAGAGGGGGAUGUGGGAGGGGGUCGAUCGAUCGAUCAUCGAUG
3. ARC643 (mixed, deoxy A,G; 2'-OMe C,U) RNA: GGGAGAGGAGAGAACGUUCUACAGGCCGAUGAGGGGGAGCAGUGGGUGGGGGGUCGAUCGAUCGAUCAUCGAUG
4. ARC646 (mixed, deoxy A,G; 2'-OMe C,U) RNA: GGGAGAGGAGAGAACGUUCUACACAUGGCUCGAAAGAGGGGCGUGAGGGUGGGGUCGAUCGAUCGAUCAUCGAUG
5. ARC642 (mixed, deoxy A,G; 2'-OMe C,U) RNA: GGGAGAGGAGAGAACGUUCUACAGGCGCAGCCAGCGGGGAGUGAGGGUGGGGGUCGAUCGAUCGAUCAUCGAUG

Reply:
[6.75, 6.37, 6.51, 6.42, 6.73]
